Molecular target: T1, FAM19A5 mutants M1 to M8 (Homo sapiens, UniProt Q7Z5A7)
T1 construct: made in house; host or cells: phage display with helper phage
T1 sequence (Q7Z5A7 with tags, fused parts or gaps isoform Q7Z5A7-2, change not shown): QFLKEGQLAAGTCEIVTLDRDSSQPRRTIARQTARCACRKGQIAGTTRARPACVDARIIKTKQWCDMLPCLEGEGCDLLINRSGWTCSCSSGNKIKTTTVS
Assay: Epitope mapping ELISA with FAM19A5 mutants M1-M8
Format: binding
Protocol: To further characterize the binding epitopes of the anti-FAM19A5 antibodies disclosed in the present disclosure, the amino acid sequences for the different FAM19 family members (i.e., FAM19A1-5) were aligned. […] The amino acid sequences of these regions were replaced with the consensus sequence of the corresponding regions for the FAM19A1-4 proteins. See Table 13 (the mutated amino acid residues are bolded and underlined). The mutant FAM19A5-expressing phages were prepared as follows. […]
endpoint-label: binding to FAM19A5 mutant M8

P2-A03: anti-FAM19A5 antibody; VH SEQ ID NO: 163, VL SEQ ID NO: 174 (antibody, V domains shown, P2-A03 VH; P2-A03 VL) VH: QSVEESGGRLVTPGTPLTLTCTVSGFSLNNYDMSWVRQAPGKGLEYIGFMDTDGSAYYATWAKGRFTISRTSTTVDLKMTSPTTEDTATYFCARRGSSYYGGIDIWGPGTPVTVSL VL: ELDLTQTPASVSEPVGGTVTIKCQASQSIGGNLAWYQQKPGQPPKLLIYRASTLASGVPSRFKGSGSGTDFTLTISDLECADAATYYCQSPAYDPAAYVGNAFGGGTELEIL :: failed to bind
P2-F11: anti-FAM19A5 antibody; VH SEQ ID NO: 165, VL SEQ ID NO: 176 (antibody, V domains shown, P2-F11 VH; P2-F11 VL) VH: QEQLVESGGRLVTPGTTLTLTCTVSGFSLSSYGVSWVRQAPGKGLEWIGYIANNYNPHYASWAKGRFTISKTSSTTVDLKMTSLTTEDTATYFCARDNYGMDPWGPGTLVTVSS VL: ELDLTQTPSSVSAAVGGTVTINCQASQSVYNNKNLAWYQQKPGQPPKLLIYAASTLASGVSSRFKGSGSGTQFTLTISDVQCDDAATYYCQGEFSCSSADCNAFGGGTELEIL :: failed to bind
